Reference source: paper PMC7861197

- ASSAY COMMENT: FTC concentrations in rat tissues by LC-MS/MS
- Type: in vivo, Sprague Dawley rats
- CONDITION DETAILS: male, Sprague Dawley, rat, liver, iv, 10 mg FTC equivalents/kg
READOUT: concentration at 4 h (ng/g)
Expressed in ng/g, but write only the number.

**Q:** Need concentration at 4 h of Nc1nc(=O)n([C@@H]2CS[C@H](CO)O2)cc1F [FTC, Emtricitabine, reference compound] , thanks.
**A:** 119

###

- ASSAY COMMENT: FTC concentrations in rat tissues by LC-MS/MS
- Assay type: in vivo, Sprague Dawley rats
- CONDITION DETAILS: male, Sprague Dawley, rat, popliteal lymph node, iv, 10 mg FTC equivalents/kg
READOUT: concentration at 4 h

**Q:** Need concentration at 4 h of Nc1nc(=O)n([C@@H]2CS[C@H](CO)O2)cc1F [FTC, Emtricitabine, reference compound] , thanks.
**A:** 105 ng/g
